Ref: paper PMC11659602

Task for the reader: assign each of the following molecules its reported remaining activity at 1 µM.
# Tested target: PADI4 (Homo sapiens)
# Construct: His6; made in house
# Sequence (Q9UM07 whole entry): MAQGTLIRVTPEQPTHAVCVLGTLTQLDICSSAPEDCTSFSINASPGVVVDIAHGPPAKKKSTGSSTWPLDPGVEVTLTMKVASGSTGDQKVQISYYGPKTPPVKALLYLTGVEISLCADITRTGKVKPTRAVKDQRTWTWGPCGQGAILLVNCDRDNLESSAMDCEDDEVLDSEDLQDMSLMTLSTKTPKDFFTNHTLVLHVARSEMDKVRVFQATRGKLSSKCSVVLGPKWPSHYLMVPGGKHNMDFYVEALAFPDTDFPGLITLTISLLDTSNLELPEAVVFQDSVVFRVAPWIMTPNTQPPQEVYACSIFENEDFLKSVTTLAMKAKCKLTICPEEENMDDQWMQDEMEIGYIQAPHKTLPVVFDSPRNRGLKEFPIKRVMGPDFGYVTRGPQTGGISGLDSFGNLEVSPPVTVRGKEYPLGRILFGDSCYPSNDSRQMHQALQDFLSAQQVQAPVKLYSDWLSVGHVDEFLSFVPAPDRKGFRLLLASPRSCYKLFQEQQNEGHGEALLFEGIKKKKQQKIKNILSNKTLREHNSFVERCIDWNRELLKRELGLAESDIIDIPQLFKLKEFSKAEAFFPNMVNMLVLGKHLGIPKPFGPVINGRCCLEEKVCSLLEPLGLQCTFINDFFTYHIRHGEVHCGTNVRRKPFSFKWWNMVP
# Assay method text: COLDER inhibition assay, BAEE substrate, with or without 1 h preincubation
# Format: biochemical
# Measurement conditions: peptide 1 µM, T=0; read-out: PADI4 activity normalised to 0.1% DMSO
Where a SMILES comes first, the peptide text is derived from it. Bridges are numbered along the chain shown (N, C = ends). [ ]: non-standard residue; d: D form. Orn(fluoroacetimidoyl) = N=C(CF)NCCC[C@H](N)C(=O)O
Output spec: scalar in %, unitless text.

Sure, the documented remaining activity at 1 µM for N=C(N)NCCC[C@@H]1NC(=O)[C@H](CCCNC(=N)CF)NC(=O)[C@H](CC(=O)O)NC(=O)[C@H](Cc2ccc(O)cc2)NC(=O)[C@H](CCCCN)NC(=O)[C@H](CO)NC(=O)[C@@H](Cc2ccc(O)cc2)NC(=O)CSC[C@@H](C(=O)NCC(N)=O)NC(=O)[C@H](CC(=O)O)NC(=O)[C@H](CCCNC(=N)N)NC(=O)[C@@H]2CCCN2C(=O)[C@H](CO)NC1=O [cP4_4, ySKYD(2)RSPRDCG] ({CH2CO}-[dY]SKYD[Orn(fluoroacetimidoyl)]RSPRDCG-NH2; thioether N-12) is 76.3

Sure, the documented remaining activity at 1 µM for N=C(N)NCCC[C@@H]1NC(=O)[C@H](Cc2ccc(O)cc2)NC(=O)[C@H](Cc2c[nH]cn2)NC(=O)[C@H](CCCNC(=N)CF)NC(=O)[C@H](CC(=O)O)NC(=O)[C@H](CCCNC(=N)N)NC(=O)[C@@H](Cc2ccc(O)cc2)NC(=O)CSC[C@@H](C(=O)NCC(N)=O)NC(=O)[C@H](Cc2ccc(O)cc2)NC(=O)[C@H](CCCCN)NC(=O)[C@@H]2CCCN2C(=O)[C@H](Cc2c[nH]cn2)NC1=O [PADI4_3_H4(2), yRD(2)HYRHPKYCG] ({CH2CO}-[dY]RD[Orn(fluoroacetimidoyl)]HYRHPKYCG-NH2; thioether N-12) is 77.4

Sure, the documented remaining activity at 1 µM for CC(C)[C@@H]1NC(=O)[C@@H](Cc2ccc(O)cc2)NC(=O)CSC[C@@H](C(=O)NCC(N)=O)NC(=O)[C@H](Cc2ccc(O)cc2)NC(=O)[C@H](CCCCN)NC(=O)[C@H](Cc2c[nH]c3ccccc23)NC(=O)[C@H](CCC(=O)O)NC(=O)[C@H](CCCCN)NC(=O)[C@H](CCCNC(=N)CF)NC(=O)[C@H](CO)NC(=O)[C@H](Cc2ccc(O)cc2)NC1=O [cP4_7, yVYS(2)KEWKYCG] ({CH2CO}-[dY]VYS[Orn(fluoroacetimidoyl)]KEWKYCG-NH2; thioether N-11) is 93.8

Sure, the documented remaining activity at 1 µM for CC[C@H](C)[C@@H]1NC(=O)[C@@H](Cc2ccc(O)cc2)NC(=O)CSC[C@@H](C(=O)NCC(N)=O)NC(=O)[C@H](CO)NC(=O)[C@H](CCCNC(=N)CF)NC(=O)[C@H](CC(=O)O)NC(=O)[C@H](CCCNC(=N)CF)NC(=O)[C@H](CC(C)C)NC(=O)CNC(=O)[C@H](Cc2c[nH]c3ccccc23)NC1=O [cP4_2, yIWGL(2)D(2)SCG] ({CH2CO}-[dY]IWGL[Orn(fluoroacetimidoyl)]D[Orn(fluoroacetimidoyl)]SCG-NH2; thioether N-10) is 107

Sure, the documented remaining activity at 1 µM for CC[C@H](C)[C@H](NC(=O)[C@H](Cc1c[nH]c2ccccc12)NC(=O)[C@H](CCC(=O)O)NC(=O)[C@@H]1CSCC(=O)N[C@H](Cc2ccc(O)cc2)C(=O)N[C@@H](C(C)C)C(=O)N[C@@H](Cc2ccc(O)cc2)C(=O)N[C@@H](CCCNC(=N)CF)C(=O)N[C@@H](CC(=O)O)C(=O)N1)C(=O)N[C@@H](CC(N)=O)C(=O)N[C@@H](CCCNC(=N)N)C(=O)N[C@@H](C)C(=O)NCC(N)=O [cP4_165, yVY(2)DCEWINRAG] ({CH2CO}-[dY]VY[Orn(fluoroacetimidoyl)]DCEWINRAG-NH2; thioether N-6) is 97

Sure, the documented remaining activity at 1 µM for CC(C)C[C@@H]1NC(=O)[C@H](CCCCN)NC(=O)[C@H](CO)NC(=O)[C@H](CO)NC(=O)[C@H](Cc2ccc(O)cc2)NC(=O)[C@H](Cc2c[nH]cn2)NC(=O)[C@H](CCCNC(=N)CF)NC(=O)[C@H](CC(=O)O)NC(=O)[C@H](CC(C)C)NC(=O)[C@@H](Cc2ccc(O)cc2)NC(=O)CSC[C@@H](C(=O)NCC(N)=O)NC(=O)[C@H](Cc2ccc(O)cc2)NC1=O [cP4_15, yLD(2)HYSSKLYCG] ({CH2CO}-[dY]LD[Orn(fluoroacetimidoyl)]HYSSKLYCG-NH2; thioether N-12) is 61.2

Sure, the documented remaining activity at 1 µM for N=C(N)NCCC[C@@H]1NC(=O)[C@H](CCCCN)NC(=O)[C@H](CC(N)=O)NC(=O)[C@H](Cc2ccccc2)NC(=O)[C@H](CC(=O)O)NC(=O)[C@H](Cc2c[nH]c3ccccc23)NC(=O)[C@H](CC(N)=O)NC(=O)[C@H](CCCNC(=N)CF)NC(=O)[C@H](Cc2ccc(O)cc2)NC(=O)[C@H](Cc2c[nH]c3ccccc23)NC(=O)[C@@H](Cc2ccc(O)cc2)NC(=O)CSC[C@@H](C(=O)NCC(N)=O)NC1=O [cP4_10, yWY(2)NWDFNKRCG] ({CH2CO}-[dY]WY[Orn(fluoroacetimidoyl)]NWDFNKRCG-NH2; thioether N-12) is 75.7
